test system: SK-MEL-28 melanoma; test: NCI tumour cell line growth inhibition, 48 h
The entries below are paired with their reported log10 TGI.
log10 TGI, µM

Worked cases, answers included:
>  <COMPOUND>
COc1ccc(/C=C(/c2ccccc2)[N+](=O)[O-])cc1

>  <log10 TGI>
0.50

$$$$
>  <COMPOUND>
C[C@]12CC[C@@H]3c4ccc(O)c([N+](=O)[O-])c4CC[C@H]3[C@@H]1CC[C@@H]2NS(=O)(=O)c1cccc(Br)c1

>  <log10 TGI>
0.56

$$$$
>  <COMPOUND>
O=C(Nc1ccc(Cl)c(Cl)c1)Nc1ccccc1O

>  <log10 TGI>
1.44

$$$$
>  <COMPOUND>
OC1(c2ccc(Cl)cc2)c2ccc(CN3CCCC3)cc2C2=NCCN21 (stereo unspecified)

>  <log10 TGI>
1.36

$$$$
>  <COMPOUND>
CC(C)(C)OC(=O)C1C(=O)NC(=O)CC1C(COCc1ccccc1)OCc1ccccc1 (stereo unspecified)

>  <log10 TGI>
1.51

$$$$

stdin: Please report log10 TGI for the following compound: CC(=O)OC1C2CCC1C1C2C2(Cl)C(Cl)=C(Cl)C1(Cl)C2(Cl)Cl (stereo unspecified)
stdout: 1.54

stdin: Please report log10 TGI for the following compound: O=C(c1ccco1)C1CC(c2c(O)ccc3ccccc23)=NN1 (stereo unspecified)
stdout: 1.68

stdin: Please report log10 TGI for the following compound: COC(C(=O)[C@@H](O)[C@@H](C)O)[C@@H]1Cc2cc3cc(O[C@H]4C[C@@H](O[C@H]5C[C@@H](O)[C@H](O)C(C)O5)[C@H](O)C(C)O4)c(C)c(O)c3c(O)c2C(=O)[C@H]1O[C@H]1C[C@@H](O[C@H]2C[C@@H](O[C@H]3C[C@@H](O)[C@H](OC)C(C)O3)[C@@H](O)C(C)O2)[C@H](O)C(C)O1 (stereo partly specified)
stdout: -1.19

stdin: Please report log10 TGI for the following compound: CCOc1ccccc1NC(=O)C(C#N)C1=C(Cl)C(=O)c2ccccc2C1=O (stereo unspecified)
stdout: 0.56

stdin: Please report log10 TGI for the following compound: O=C1c2cccc(NCCNCCO)c2C(=O)c2cccc(NCCNCCO)c21
stdout: 0.77

stdin: Please report log10 TGI for the following compound: COC(=O)C1(Cc2ccc3c(c2)CCC3)Cc2ccccc2C1=O (stereo unspecified)
stdout: 1.61

The measured values listed here are drawn from PubChem BioAssay (NCI).
